- TARGET_OF_ASSAY: Beta-2 adrenergic receptor (Homo sapiens) (UniProt P07550)
- Sequence (P07550 whole entry, looked up): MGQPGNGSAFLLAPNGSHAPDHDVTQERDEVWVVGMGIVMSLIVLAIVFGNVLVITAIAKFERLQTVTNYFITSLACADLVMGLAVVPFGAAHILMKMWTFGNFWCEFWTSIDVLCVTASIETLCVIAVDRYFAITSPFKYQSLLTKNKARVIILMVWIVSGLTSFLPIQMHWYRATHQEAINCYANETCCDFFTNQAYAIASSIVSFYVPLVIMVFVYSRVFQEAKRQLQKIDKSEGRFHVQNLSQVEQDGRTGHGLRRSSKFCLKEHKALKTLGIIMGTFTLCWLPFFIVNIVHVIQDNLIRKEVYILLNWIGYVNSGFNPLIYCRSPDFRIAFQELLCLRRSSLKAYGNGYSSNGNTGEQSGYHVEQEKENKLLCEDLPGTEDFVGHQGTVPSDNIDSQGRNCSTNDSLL
- METHOD_NOTES: qHTS assay of beta-arrestin-biased ligands of beta2-adrenergic receptor: Hit Validation with GloSensor
- TEST_CONTEXT: W9-Glo22F cells, GloSensor cAMP luminescence, beta2AR agonism
In all, about 1,200 compounds went through this assay and about 85 (7%) were called active. Calls follow the shape of the full dose curve. Shown is part of a subset that was picked to be rich in actives.
A correct response names exactly one class from true for active, false for inactive

A selection of reference data follows.
{"COMPOUND": "CCCNC(=O)COc1ccc2c(=O)c(Oc3ccccc3F)coc2c1", "ASSIGNED_LABEL": "false"}
{"COMPOUND": "O=[N+]([O-])c1cc(Br)cc(C=Nc2ccc3c(c2)OCO3)c1O", "ASSIGNED_LABEL": "false"}
{"COMPOUND": "COc1ccc(N2C(=O)C(CC(=O)Nc3ccc(Cl)cc3)N(NC(=O)c3cccc(F)c3)C2=S)cc1 (stereo unspecified)", "ASSIGNED_LABEL": "false"}
{"COMPOUND": "CCN(CC)c1cc(C(F)(F)F)nc(-c2ccccn2)n1", "ASSIGNED_LABEL": "false"}
{"COMPOUND": "CCOC(=O)c1ccccc1NC1c2ccccc2C(=O)N1C1CCN(C(=O)OCC)CC1 (stereo unspecified)", "ASSIGNED_LABEL": "false"}

Query string: Which outcome was entered for the compound `COc1cccc(NC(=S)N/N=C2\CC(C)(C)Oc3ccc(O)cc32)c1` in this test?
Result string: true

Query string: Same read-out for `CCc1ccc(CNc2ccc(O)cc2)cc1` ?
Result string: false

---

- TARGET_OF_ASSAY: Beta-2 adrenergic receptor (Homo sapiens) (UniProt P07550)
- METHOD_NOTES: qHTS assay of beta-arrestin-biased ligands of beta2-adrenergic receptor: Hit Validation with GloSensor
- TEST_CONTEXT: W9-Glo22F cells, GloSensor cAMP luminescence, beta2AR agonism
Screen size: about 1,200 compounds; about 85 (7%) were called active. Calls come from the whole dose curve. What follows is part of a selection rich in actives, with near analogues and random picks from the rest.
A correct response names exactly one class from true (active), false (inactive)

{"MOLECULE": "CC(C)C(=O)COc1c2occc2cc2ccc(=O)oc12", "ASSIGNED_LABEL": "true"}
{"MOLECULE": "O=C(CC(=O)Nc1cccc(F)c1)Nc1cccc(F)c1", "ASSIGNED_LABEL": "false"}

Query string: Which outcome was entered for the molecule `COc1cc(/C(C)=N/NC(=S)NC(C)C)cc(OC)c1OC` in this test?
Result string: true

Query string: Same read-out for `Clc1ccc(OCc2nc(-c3ccccn3)n[nH]2)cc1` ?
Result string: false

Query string: Same read-out for `CC/C(=N\NC(=S)NC(C)C)c1ccc(OC)c(OC)c1` ?
Result string: true

Query string: Same read-out for `CCOc1ccc(/C(CCC(=O)O)=N/NC(=S)NC(C)C)cc1` ?
Result string: false

Query string: Same read-out for CCCC1(C(=O)OCC)NC(c2ccc(OC)cc2OC)C2C(=O)N(c3ccc4c(c3)OCCO4)C(=O)C21 (stereo unspecified) ?
Result string: false

Query string: Same read-out for `O=c1c2cn[nH]c2nc(SCc2ccccc2F)n1-c1ccc(Br)cc1` ?
Result string: false

Cited source: PubChem BioAssay AID588790
